Consider the following compounds; for each one, report its pIC50.
target: P-selectin (Homo sapiens, UniProt P16109); construct: P-selectin is isolated from human platelet lysates; assay: Inhibition of human neutrophil adhesion to purified P-selectin immobilized on plastic wells; conditions: inhibiting the binding of human neutrophils to P-selectin
Sequence (P16109 42-830): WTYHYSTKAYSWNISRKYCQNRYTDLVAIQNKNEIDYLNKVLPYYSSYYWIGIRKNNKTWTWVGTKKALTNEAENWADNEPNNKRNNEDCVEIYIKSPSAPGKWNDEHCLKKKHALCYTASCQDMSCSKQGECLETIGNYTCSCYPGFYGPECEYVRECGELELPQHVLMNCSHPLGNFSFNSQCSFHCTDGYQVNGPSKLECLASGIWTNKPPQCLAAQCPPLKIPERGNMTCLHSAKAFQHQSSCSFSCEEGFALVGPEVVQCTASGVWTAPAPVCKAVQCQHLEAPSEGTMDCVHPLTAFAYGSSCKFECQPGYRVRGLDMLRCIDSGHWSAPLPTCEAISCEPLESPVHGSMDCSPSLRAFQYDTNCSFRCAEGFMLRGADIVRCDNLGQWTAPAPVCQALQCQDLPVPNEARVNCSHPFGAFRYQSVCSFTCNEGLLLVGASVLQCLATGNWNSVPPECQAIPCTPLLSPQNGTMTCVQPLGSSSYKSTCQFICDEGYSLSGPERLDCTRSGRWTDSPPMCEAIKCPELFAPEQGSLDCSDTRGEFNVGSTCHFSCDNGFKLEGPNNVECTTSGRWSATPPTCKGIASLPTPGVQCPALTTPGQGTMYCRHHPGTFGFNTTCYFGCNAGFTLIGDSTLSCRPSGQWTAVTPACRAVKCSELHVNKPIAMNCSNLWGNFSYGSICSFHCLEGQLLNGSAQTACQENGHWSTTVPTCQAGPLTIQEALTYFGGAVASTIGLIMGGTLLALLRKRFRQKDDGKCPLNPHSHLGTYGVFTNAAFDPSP
Where a SMILES comes first, the peptide text is derived from it. Bridges are numbered along the chain shown (N, C = ends). [ ]: non-standard residue; d: D form.
Conceptually, pIC50 converts a concentration in mol/L into minus its log10.

For CC(C)[C@@H](NC(=O)[C@@H](Cc1c[nH]c2ccccc12)NC(=O)[C@H](NC(=O)[C@@H](Cc1c[nH]c2ccccc12)NC(=O)[C@H]1CSSC[C@@H](NC(=O)[C@H](N)CCCCN)C(=O)NCC(=O)NCC(=O)N1)[C@H](C)O)C(N)=O [(26)] (H-[dK][dC]GG[dC][dW][dT][dW][dV]-NH2; disulfide 2-5) , write its pIC50. 4.59

For CC(C)[C@@H](NC(=O)[C@@H](Cc1c[nH]c2ccccc12)NC(=O)[C@H](NC(=O)[C@@H](Cc1c[nH]c2ccccc12)NC(=O)[C@H]1CSSC[C@@H](NC(=O)[C@@H](CCCCN)NC(=O)[C@H](N)CCCNC(=N)N)C(=O)NCC(=O)N[C@@H](CC(=O)O)C(=O)N1)[C@H](C)O)C(N)=O [(42)] (H-[dR][dK][dC]GD[dC][dW][dT][dW][dV]-NH2; disulfide 3-6) , write its pIC50. 3.02

For CC(C)[C@@H](NC(=O)[C@@H](Cc1c[nH]c2ccccc12)NC(=O)[C@H](NC(=O)[C@@H](Cc1c[nH]c2ccccc12)NC(=O)[C@H]1CSSC[C@@H](NC(=O)[C@@H](CCCCN)NC(=O)[C@@H](N)CCCNC(=N)N)C(=O)NCC(=O)N[C@@H](Cc2ccccc2)C(=O)N1)[C@H](C)O)C(N)=O [(101)] (H-R[dK][dC]GF[dC][dW][dT][dW][dV]-NH2; disulfide 3-6) , write its pIC50. 4.47
